Assay target: T1, human Protein S (UniProt P07225 42-676)
T1 chain: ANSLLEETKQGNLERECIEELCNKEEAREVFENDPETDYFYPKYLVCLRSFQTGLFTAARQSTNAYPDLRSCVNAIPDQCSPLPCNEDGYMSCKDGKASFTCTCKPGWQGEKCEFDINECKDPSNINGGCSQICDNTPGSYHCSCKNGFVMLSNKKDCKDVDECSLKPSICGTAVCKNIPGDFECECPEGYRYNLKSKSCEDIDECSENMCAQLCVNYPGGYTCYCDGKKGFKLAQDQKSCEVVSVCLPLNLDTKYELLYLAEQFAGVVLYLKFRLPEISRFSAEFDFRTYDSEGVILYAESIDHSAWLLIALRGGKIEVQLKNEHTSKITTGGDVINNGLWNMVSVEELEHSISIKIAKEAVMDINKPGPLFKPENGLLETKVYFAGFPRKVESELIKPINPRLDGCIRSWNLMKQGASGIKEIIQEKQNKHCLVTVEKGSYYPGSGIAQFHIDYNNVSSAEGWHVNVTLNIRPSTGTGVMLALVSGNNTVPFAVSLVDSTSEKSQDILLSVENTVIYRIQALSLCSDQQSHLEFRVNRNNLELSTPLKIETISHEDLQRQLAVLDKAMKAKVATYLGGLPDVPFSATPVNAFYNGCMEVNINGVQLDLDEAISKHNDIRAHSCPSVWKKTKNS
Method summary: LANCE competition
Items are presented alongside their recorded IC50.
Please state the figure in nM; there is no need to write the unit.

CGLVSAGWYDYNFDCYREFT [JBS3172]: 55.2
Ac-EYYVSAGWYDYNDDKYYEFE-NH2 [JBS3217]: 1.3
Ac-EVIVSAGWYDYNNDIYYEFW-NH2 [JBS3274]: 1

Kindly consider the entry below.
Could you share which IC50 value was measured for Ac-EYYVSAGWYDYNSDTYQEFI-NH2 [JBS3244] ?
4.7
